Test system: rat trachea rings
Test: Measurement of isometric force development: rat trachea ring constriction
Set-up: species or system Female Wistar rats
Conditions: compound at 10 μM; in % of the constriction induced by 50 mM KCl
Could you please report measured % trachea constriction at 10 μM for the items listed next?
Answers are plain numbers, in %.

INSERT INTO measurements (given_smiles, target, readout_name, obs_value) VALUES
  ('CCc1cc(-c2noc(-c3cc(OC)nc(C(CC)CC)c3)n2)cc(C)c1OC[C@@H](O)CNC(=O)CO', 'rat trachea rings', '% trachea constriction at 10 μM', 100);

**Q:** State the recorded % trachea constriction at 10 μM for this entry: CCc1cc(-c2noc(-c3cc(OC)nc(C(CC)CC)c3)n2)cc(C)c1OC[C@@H](O)CO
**A:** 24

====

System: circulating lymphocytes
Assay: Assessment of in vivo efficacy: circulating lymphocytes after oral administration
Parameters: species or system normotensive male Wistar rats
Conditions: Rattus norvegicus, Lymphocyte; 6 h after oral administration of 10 mg/kg, male Wistar rats, compared to vehicle group; read-out: Lymphocyte counts
Protocol: The efficacy of the compounds of Formula (I) is assessed by measuring the circulating lymphocytes after oral administration of 3 to 30 mg/kg of a compound of Formula (I) to normotensive male Wistar rats. […] Lymphocyte counts 6 h after oral administration have been measured for 23 out of 30 exemplified compounds and are in the range of −42% to −80% with an average of −63%.
Criterion: change in vivo at 10 mg/kg meeting or surpassing -60%. Met: y. Not met: n.

**Q:** Check the entry CCc1cc(-c2noc(-c3cc(OC)nc(C4CCCCC4)c3)n2)cc(C)c1OC[C@@H](O)CNC(=O)CO : does change in vivo at 10 mg/kg equal or exceed -60%?
**A:** y

**Q:** Check the entry CCc1cc(-c2noc(-c3cc(OC)nc(C4CCCC4)c3)n2)cc(C)c1OC[C@@H](O)CN(C)C(=O)CO : does change in vivo at 10 mg/kg equal or exceed -60%?
**A:** n

**Q:** Check the entry CCS(=O)(=O)Nc1c(C)cc(-c2noc(-c3cc(OC)nc(C4CCCC4)c3)n2)cc1Cl : does change in vivo at 10 mg/kg equal or exceed -60%?
**A:** n

**Q:** Check the entry CCc1cc(-c2noc(-c3cc(OC)nc(C(CC)CC)c3)n2)cc(C)c1OC[C@@H](O)CO : does change in vivo at 10 mg/kg equal or exceed -60%?
**A:** n

**Q:** Check the entry CCc1cc(-c2noc(-c3cc(OC)nc(C(CC)CC)c3)n2)cc(C)c1NS(C)(=O)=O : does change in vivo at 10 mg/kg equal or exceed -60%?
**A:** y

**Q:** Check the entry COc1cc(-c2nc(-c3cc(C)c(NS(C)(=O)=O)c(Cl)c3)no2)cc(C2CCCC2)n1 : does change in vivo at 10 mg/kg equal or exceed -60%?
**A:** n

====

Test system: rat trachea rings
Test: Measurement of isometric force development: rat trachea ring constriction
Set-up: species or system Female Wistar rats
Settings: compound at 10 μM; in % of the constriction induced by 50 mM KCl
Readout name: % trachea constriction at 10 μM

INSERT INTO results (given_smiles, target, obs_value) VALUES
  ('CCc1cc(-c2noc(-c3cc(OC)nc(C4CCCC4)c3)n2)cc(C)c1OC[C@@H](O)CN(C)C(=O)CO', 'rat trachea rings', '<5%'),
  ('CCc1cc(-c2noc(-c3cc(OC)nc(C4CCCC4)c3)n2)cc(C)c1OC[C@@H](O)CO', 'rat trachea rings', '<5%');

Let's switch to this compound now.
**Q:** State the recorded % trachea constriction at 10 μM for this entry: CCc1cc(-c2noc(-c3cc(OC)nc(C4CCCC4)c3)n2)cc(C)c1NS(C)(=O)=O
**A:** <5%

====

Test system: circulating lymphocytes
Assay: Assessment of in vivo efficacy: circulating lymphocytes after oral administration
Parameters: species or system normotensive male Wistar rats
Settings: Rattus norvegicus, Lymphocyte; 6 h after oral administration of 10 mg/kg, male Wistar rats, compared to vehicle group; read-out: Lymphocyte counts
Protocol: The efficacy of the compounds of Formula (I) is assessed by measuring the circulating lymphocytes after oral administration of 3 to 30 mg/kg of a compound of Formula (I) to normotensive male Wistar rats. […] Lymphocyte counts 6 h after oral administration have been measured for 23 out of 30 exemplified compounds and are in the range of −42% to −80% with an average of −63%.
Readout name: change in vivo at 10 mg/kg (%)
Answers are plain numbers, in %.

Some solved entries appear below for comparison.
INSERT INTO results (compound, target, readout_name, units_label, obs_value) VALUES
  ('CCc1cc(-c2noc(-c3cc(OC)nc(C4CCCC4)c3)n2)cc(C)c1OC[C@@H](O)CNC(=O)CO [Example 7]', 'circulating lymphocytes', 'change in vivo at 10 mg/kg', '%', -65),
  ('CCc1cc(-c2noc(-c3cc(OC)nc(C4CCCC4)c3)n2)cc(C)c1NS(C)(=O)=O [Example 19]', 'circulating lymphocytes', 'change in vivo at 10 mg/kg', '%', -61),
  ('CCc1cc(-c2nc(-c3cc(OC)nc(C4CCCC4)c3)no2)cc(C)c1OC[C@@H](O)CNC(=O)CO [Example 23]', 'circulating lymphocytes', 'change in vivo at 10 mg/kg', '%', -56),
  ('COc1cc(-c2nc(-c3cc(C)c(OC[C@@H](O)CO)c(Cl)c3)no2)cc(C2CCCCC2)n1 [Example 29]', 'circulating lymphocytes', 'change in vivo at 10 mg/kg', '%', -62),
  ('CCc1cc(-c2noc(-c3cc(OC)nc(C4CCCC4)c3)n2)cc(C)c1OC[C@H](O)CO [Example 3]', 'circulating lymphocytes', 'change in vivo at 10 mg/kg', '%', -63);

Dear colleague, could you send me change in vivo at 10 mg/kg for each of the items below? Thanks.
1. CCc1cc(-c2noc(-c3cc(OC)nc(C(CC)CC)c3)n2)cc(C)c1OC[C@@H](O)CNC(=O)CO [Example 6]
2. CCc1cc(-c2nnc(-c3cc(OC)nc(C4CCCC4)c3)o2)cc(C)c1OC[C@@H](O)CO [Example 25]
3. CCc1cc(-c2nnc(-c3cc(OC)nc(C4CCCC4)c3)o2)cc(C)c1OC[C@@H](O)CNC(=O)CO [Example 27]
4. CCc1cc(-c2noc(-c3cc(OC)nc(C4CCCC4)c3)n2)cc(C)c1OC[C@@H](O)CO [Example 2]
5. CCC(CC)c1cc(-c2nc(-c3cc(C)c(NS(C)(=O)=O)c(Cl)c3)no2)cc(OC)n1 [Example 11]
6. COc1cc(-c2nc(-c3cc(C)c(NS(C)(=O)=O)c(Cl)c3)no2)cc(C2CCCCC2)n1 [Example 17]
7. COc1cc(-c2nc(-c3cc(C)c(OC[C@@H](O)CNC(=O)CO)c(Cl)c3)no2)cc(C2CCCC2)n1 [Example 14]
8. CCc1cc(-c2noc(-c3cc(OC)nc(C4CCCCC4)c3)n2)cc(C)c1NS(C)(=O)=O [Example 20]

**A:**
1. -59
2. -51
3. -54
4. -70
5. -74
6. -80
7. -70
8. -67

Dear colleague, could you send me change in vivo at 10 mg/kg for each of the items below? Thanks.
1. CCc1cc(-c2nc(-c3cc(OC)nc(C4CCCC4)c3)no2)cc(C)c1OC[C@@H](O)CO [Example 21]
2. CCc1cc(-c2noc(-c3cc(CCC(C)C)nc(OC)c3)n2)cc(C)c1OC[C@@H](O)CNC(=O)CO [Example 16]

**A:**
[-62, -73]
